- Protocol description: Tmax in ICR mouse at 67.7 mg/kg, po by LC-MS/MS analysis
- Assay type: ADME, organism-based
- Design: dose 67.7 mg/kg, route oral
- Conditions: in vivo
Recorded endpoint: Tmax (min)
Give your result in min as a bare value.

Exercise: Any idea what its Tmax is? The compound is CC(=O)NC[C@H]1CN(c2ccc(N3CCOCC3)c(F)c2)C(=O)O1
Key: 30

###

- Protocol description: AUC (infinity) in ICR mouse at 67.7 mg/kg, po by LC-MS/MS analysis
- Type: ADME, organism-based
- Design: time infinity, dose 67.7 mg/kg, route oral
- Conditions: plasma
Recorded endpoint: AUC(0-inf) (µg·h/mL)
Give your result in µg·h/mL as a bare value.

Exercise: Any idea what its AUC(0-inf) is? The molecule is CC(=O)NC[C@H]1CN(c2ccc(N3CCOCC3)c(F)c2)C(=O)O1
Key: 162

###

- Tested on: Haemophilus influenzae
- Protocol description: Antibacterial activity against Haemophilus influenzae SR27914 clinical isolate assessed as […] by CLSI broth microdilution method
- Type: functional
Recorded endpoint: MIC (µg/mL)
Give your result in µg/mL as a bare value.

Exercise: Any idea what its MIC is? The compound is O=C1O[C@@H](Cn2ccnn2)CN1c1ccc(-c2ccc3nccn3c2)c(F)c1
Key: 4

Exercise: Any idea what its MIC is? The compound is CC(=O)NC[C@H]1CN(c2ccc(-c3ccc4ncnn4c3)c(F)c2)C(=O)O1
Key: 4

Exercise: Any idea what its MIC is? The compound is CC(=O)NC[C@H]1CN(c2ccc(N3CCOCC3)c(F)c2)C(=O)O1
Key: 16
